Molecular target: T1, Sortilin SORTECDBAP_hB12390 (human/tetraodon chimera)
T1 construct: Shuffle construct: chimeric human/tetraodon Sortilin ECD with BAP tag
T1 chain: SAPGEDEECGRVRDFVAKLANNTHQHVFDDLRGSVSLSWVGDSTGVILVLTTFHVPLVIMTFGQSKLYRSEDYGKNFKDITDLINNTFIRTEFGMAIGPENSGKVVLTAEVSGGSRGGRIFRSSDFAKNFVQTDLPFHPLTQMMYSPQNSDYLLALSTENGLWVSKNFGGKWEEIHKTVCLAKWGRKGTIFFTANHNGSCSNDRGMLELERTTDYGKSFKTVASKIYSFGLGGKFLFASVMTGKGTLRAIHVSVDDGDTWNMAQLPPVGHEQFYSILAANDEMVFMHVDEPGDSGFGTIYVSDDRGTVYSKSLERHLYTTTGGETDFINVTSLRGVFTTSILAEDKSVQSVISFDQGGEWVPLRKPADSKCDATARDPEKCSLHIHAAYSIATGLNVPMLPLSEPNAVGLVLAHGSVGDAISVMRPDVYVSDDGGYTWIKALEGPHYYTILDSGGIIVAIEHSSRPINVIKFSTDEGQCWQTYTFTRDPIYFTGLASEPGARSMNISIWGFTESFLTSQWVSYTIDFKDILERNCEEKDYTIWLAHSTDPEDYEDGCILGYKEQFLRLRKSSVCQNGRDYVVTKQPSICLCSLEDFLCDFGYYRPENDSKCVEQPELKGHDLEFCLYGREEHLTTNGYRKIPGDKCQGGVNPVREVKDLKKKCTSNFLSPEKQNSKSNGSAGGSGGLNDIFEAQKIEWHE
Experiment: BLI (Octet384RED)
valueKind: EC50

binder="Antibody 6003-028 (antibody, human IgG1, V domains shown) VH: EVQLLESGGGLVQPGGSLRLSCAASGFTFSSYAMSWVRQAPGKGLEWVSTISGRGGSTYYADSVKGRFTISRDNSKNTLYLQMNSLRAEDTAVYYCANLYSNYWYFDLWGRGTLVTVSS VL: EIVLTQSPATLSLSPGERATLSCRASQSVSSFLAWYQQKPGQAPRLLIYDASNRATGIPARFSGSGSGTDFTLTISSLEPEDFAVYYCQQRSNWPLTFGGGTKVEIK" result="1.86 ng/mL"
binder="Antibody 6003-1286 (antibody, human IgG1, V domains shown) VH: EVQLLESGGGLVQPGGSLRLSCAASGFTFSSYAMSWVRQAPGKGLEWVSTISGRGGNTYYADSVKGRFTISRDNSKNTLYLQMNSLRAEDAAVYYCANIYSHYWYFDLWGRGTLVTVSS VL: EIVLTQSPATLSLSPGERATLSCRASQSVNSYLAWYQQKPGQAPRLLIYDASNRATGIPARFSGSGSGTDFTLTISSLEPEDFAVYYCQQRSNWPLTFGGGTKVEIK" result="0.86 ng/mL"
binder="Antibody 6003-056 (antibody, human IgG1, V domains shown) VH: EVQVLESGGGLVQPGGSLRLSCVASGFTFSSYAMHWVRQAPGKGLEWVSAISGRGGSTYYADSVKGRFTISRDNSKNTLYLQMNSLRAEDTAVYYCAIIPSLYWYFDLWGRGTLVTVSS VL: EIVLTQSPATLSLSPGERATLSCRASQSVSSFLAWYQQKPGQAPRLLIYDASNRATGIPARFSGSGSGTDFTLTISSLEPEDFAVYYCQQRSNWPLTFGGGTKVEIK" result="1.42 ng/mL"
binder="IgG1-6003-408 (antibody, V domains shown, also called Antibody 6003-408) VH: EVQLVESGGGLVKPGGSLRLSCAASGFTFSSYSMNWVRQAPGKGLEWVSSISSSSSYIYYADSVKGRFTISRDNAKNSLYLQMNSLRAEDTAVYYCARRRIAAAGTGYGAFDIWGQGTMVTVSS VL: ARQLTQSPSSLSASVGDRVTITCRASQGITSALAWYQQKPGKVPKLLIYDASSLESGVPSRFSGSGSGTDFTLTISSLQPEDFATYYCQQFNGYPMFSFGQGTKLEII" result="2.21 ng/mL"

This collection of values is drawn from patent US20210292414A1.
